test system: HOP-62 NSCLC; assay: NCI tumour cell line growth inhibition, 48 h

- molecule: "CC(C)=CCC[C@@H](C)C1=C(O)C(N[C@H](C)c2ccccc2)=C(C)C(=O)C1=O"
  assayed_system: "HOP-62 NSCLC"
  TGI: "20 µM"
- molecule: "CN(C)C(=O)C(F)(F)C(c1ccccc1)C1C(=O)N(C)C(=O)N(C)C1=O (configuration not stated)"
  assayed_system: "HOP-62 NSCLC"
  TGI: "> 100 µM"
- molecule: "CC(C)c1cc(=O)[nH]c2cc(N)ccc12"
  assayed_system: "HOP-62 NSCLC"
  TGI: "> 100 µM"
- molecule: "OCCCN=C1CCCCC1"
  assayed_system: "HOP-62 NSCLC"
  TGI: "> 100 µM"
- molecule: "S=c1ssnc1-c1cc2ccccc2o1"
  assayed_system: "HOP-62 NSCLC"
  TGI: "37.6 µM"
- molecule: "O/N=C\\c1c2c(cc3c1CCC3)CCC2"
  assayed_system: "HOP-62 NSCLC"
  TGI: "> 100 µM"
- molecule: "CC1(C)CC(O)CC(C)(C)N1O"
  assayed_system: "HOP-62 NSCLC"
  TGI: "> 100 µM"
- molecule: "COC1C(OC(=O)c2ccc(C)[nH]2)C(O)C(Oc2ccc3c(O)c(NC(=O)c4ccc(O)c(CC=C(C)C)c4)c(=O)oc3c2Cl)OC1(C)C (configuration not stated)"
  assayed_system: "HOP-62 NSCLC"
  TGI: "33.4 µM"
- molecule: "CN1CCCCC1CCN1c2ccccc2Sc2ccc(Br)cc21 (configuration not stated)"
  assayed_system: "HOP-62 NSCLC"
  TGI: "22.8 µM"
- molecule: "CC1(C)N=C(C(N)=O)c2[nH]cnc2N1"
  assayed_system: "HOP-62 NSCLC"
  TGI: "> 100 µM"
- molecule: "ClC1=NSSC1(Cl)Cl"
  assayed_system: "HOP-62 NSCLC"
  TGI: "> 100 µM"
- molecule: "Cc1ccc(C)c2c1C1CCCCC3(OCCCO3)C21O (configuration not stated)"
  assayed_system: "HOP-62 NSCLC"
  TGI: "> 100 µM"

---

Items are presented alongside their recorded TGI.
system: COLO 205 colon; test: NCI tumour cell line growth inhibition, 48 h
metric: TGI

- compound: "NC(=S)NNCC(=O)CC(O)(C(F)(F)F)C(F)(F)Cl (stereo unspecified)"
  measured_value: "> 100 µM"
- compound: "CCCN1C(=O)/C(=C/c2ccc(SC(F)(F)F)cc2)SC1=Nc1ccc(OC)cc1"
  measured_value: "> 50 µM"
- compound: "CC1(C)CC(O)CC(C)(C)N1O"
  measured_value: "> 100 µM"
- compound: "CC(=O)c1csc2c1C(=O)c1ccccc1C2=O"
  measured_value: "3.62 µM"
- compound: "CCN(CC)c1ccc(/C=N/NC(=O)Cc2ccc(Nc3ccnc(C(F)(F)F)c3)cc2)c(O)c1"
  measured_value: "> 100 µM"
- compound: "CC(=O)c1cc2c(N)c(C(=O)Nc3cccc4ccccc34)sc2nc1C"
  measured_value: "3.2 µM"
- compound: "O=C(/C=C/c1ccc(OCc2ccccc2)cc1)NCc1ccc(C(=O)NCCc2ccccc2)cc1"
  measured_value: "> 100 µM"
- compound: "CN(C)C(=O)C(F)(F)C(c1ccccc1Br)C1C(=O)N(C)C(=O)N(C)C1=O (stereo unspecified)"
  measured_value: "> 100 µM"
- compound: "COC(=O)c1ccccc1CC1Cc2c(C)ccc(C)c2C1=O (stereo unspecified)"
  measured_value: "34.3 µM"
- compound: "S=c1ncc(-c2cncc(-c3cnc(=S)[nH]c3)n2)c[nH]1"
  measured_value: "> 100 µM"
- compound: "O/N=C\\c1c2c(cc3c1CCC3)CCC2"
  measured_value: "> 100 µM"
